- target_or_test_system: Angiotensin-I converting enzyme (from rabbit lung) (Oryctolagus cuniculus)
- Construct: Angiotensin-I converting enzyme (from rabbit lung); purchased Sigma Co., USA; host or cells: rabbit lung (tissue-derived)
- Sequence (P12822 34-1310): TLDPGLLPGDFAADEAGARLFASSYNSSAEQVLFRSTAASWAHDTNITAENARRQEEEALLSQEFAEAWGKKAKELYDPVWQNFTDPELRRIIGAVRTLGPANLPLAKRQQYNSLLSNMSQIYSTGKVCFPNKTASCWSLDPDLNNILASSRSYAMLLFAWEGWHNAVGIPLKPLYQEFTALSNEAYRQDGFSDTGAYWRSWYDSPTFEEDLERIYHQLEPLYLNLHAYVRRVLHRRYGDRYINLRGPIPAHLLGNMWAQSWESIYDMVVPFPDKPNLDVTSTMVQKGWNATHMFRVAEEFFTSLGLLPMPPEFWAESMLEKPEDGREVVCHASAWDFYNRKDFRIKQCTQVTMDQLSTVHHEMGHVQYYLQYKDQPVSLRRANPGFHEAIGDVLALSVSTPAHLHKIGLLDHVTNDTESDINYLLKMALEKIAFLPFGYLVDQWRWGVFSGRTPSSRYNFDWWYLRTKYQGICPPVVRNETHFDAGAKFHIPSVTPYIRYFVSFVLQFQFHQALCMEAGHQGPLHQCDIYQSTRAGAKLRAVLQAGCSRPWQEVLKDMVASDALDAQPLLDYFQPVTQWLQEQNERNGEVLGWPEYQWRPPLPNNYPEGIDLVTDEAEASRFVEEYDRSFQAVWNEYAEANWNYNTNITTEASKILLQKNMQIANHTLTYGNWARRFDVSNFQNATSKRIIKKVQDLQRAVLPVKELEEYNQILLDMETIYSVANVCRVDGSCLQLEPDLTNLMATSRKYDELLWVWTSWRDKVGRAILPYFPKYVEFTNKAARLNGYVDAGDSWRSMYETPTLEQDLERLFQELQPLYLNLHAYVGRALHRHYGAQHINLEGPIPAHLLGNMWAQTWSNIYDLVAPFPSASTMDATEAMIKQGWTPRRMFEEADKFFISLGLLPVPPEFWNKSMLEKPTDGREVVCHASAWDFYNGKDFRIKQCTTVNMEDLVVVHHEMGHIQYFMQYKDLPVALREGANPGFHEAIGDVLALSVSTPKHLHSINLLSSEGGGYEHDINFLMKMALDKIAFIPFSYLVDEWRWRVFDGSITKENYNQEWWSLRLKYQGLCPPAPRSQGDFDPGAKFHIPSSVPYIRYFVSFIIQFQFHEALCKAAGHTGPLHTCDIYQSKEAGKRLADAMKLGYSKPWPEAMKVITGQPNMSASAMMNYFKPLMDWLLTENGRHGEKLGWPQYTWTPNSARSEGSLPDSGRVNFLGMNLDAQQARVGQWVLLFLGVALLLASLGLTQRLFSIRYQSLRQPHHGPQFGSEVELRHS
- experiment_notes: ACE inhibitory activity (HHL substrate, hippuric acid by HPLC)
- Format: biochemical
- measurement_setup: synthetic peptides
pIC50: −log10 of the molar value. Residues, ends and D or L forms follow the SMILES beside them.
measurement_name: pIC50

Some compounds with known pIC50 results, for comparison:
{"columns": ["compound", "pIC50"],
 "data": [
  ["CC[C@H](C)[C@H](NC(=O)[C@@H](N)CC(C)C)C(=O)N[C@H](C(=O)N1CCC[C@H]1C(=O)N[C@@H](CCC(N)=O)C(=O)O)[C@@H](C)CC [LIIPQ] (H-LIIPQ-OH; N-terminus and C-terminus assumed)", 2.62],
  ["CC[C@H](C)[C@H](NC(=O)[C@H](CC(C)C)NC(=O)[C@@H](N)CC(C)C)C(=O)N[C@H](C(=O)N1CCC[C@H]1C(=O)N[C@@H](CCC(N)=O)C(=O)N[C@@H](Cc1c[nH]cn1)C(=O)O)[C@@H](C)CC [LLIIPQH] (H-LLIIPQH-OH; N-terminus and C-terminus assumed)", 3.00],
  ["CC[C@H](C)[C@H](N)C(=O)N[C@H](C(=O)N1CCC[C@H]1C(=O)N[C@@H](CCC(N)=O)C(=O)N[C@@H](Cc1c[nH]cn1)C(=O)O)[C@@H](C)CC [IIPQH] (H-IIPQH-OH; N-terminus and C-terminus assumed)", 2.75]
]}

[P] CC[C@H](C)[C@H](NC(=O)[C@@H](N)CC(C)C)C(=O)N[C@H](C(=O)N1CCC[C@H]1C(=O)N[C@@H](CCC(=O)O)C(=O)N[C@@H](Cc1c[nH]cn1)C(=O)O)[C@@H](C)CC [H6, LIIPEH] (H-LIIPEH-OH; N-terminus and C-terminus assumed)
[Q] CC[C@H](C)[C@H](NC(=O)[C@@H](N)CC(C)C)C(=O)N[C@H](C(=O)N1CCC[C@H]1C(=O)O)[C@@H](C)CC [LIIP] (H-LIIP-OH; N-terminus and C-terminus assumed)
Which is greater in pIC50, the first item P or the second item Q ? Your answer should be the label attached to the chosen record. P
